Answer each item with its documented percent of parent.
B1: TMEM59 peptide (residues 268–280), wild type [modified: long spacer (Tds) at the N-terminal end, used for immobilisation; long spacer (Tds) at the N-terminal end, used for immobilisation] [not stated] / GST-HA-ATG16L1(231–607) … (parent)
chain 1: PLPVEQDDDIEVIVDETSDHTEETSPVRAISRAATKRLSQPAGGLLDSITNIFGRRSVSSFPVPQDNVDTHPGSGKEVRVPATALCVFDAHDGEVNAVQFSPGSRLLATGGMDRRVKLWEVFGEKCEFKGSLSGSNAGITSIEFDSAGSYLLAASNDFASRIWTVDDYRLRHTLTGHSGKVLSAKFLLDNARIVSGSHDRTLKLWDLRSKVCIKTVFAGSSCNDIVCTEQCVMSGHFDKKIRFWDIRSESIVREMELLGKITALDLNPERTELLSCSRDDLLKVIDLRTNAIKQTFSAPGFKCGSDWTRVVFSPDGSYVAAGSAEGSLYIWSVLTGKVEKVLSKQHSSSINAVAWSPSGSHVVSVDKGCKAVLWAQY
chain 2: YVPSEKLSIYGDL

Variants of: B1
procedureDetails: peptide microarray
testConditions: with GST-HA-ATG16L1(231–607) [human]; ligand 200, 50, 20 nM; parent: 100
Give bare numbers, in % WT.

>  <mutantLabel>
chain 2 K6G

>  <numericResult>
6

$$$$
>  <mutantLabel>
chain 2 L7S

>  <numericResult>
31

$$$$
>  <mutantLabel>
chain 2 S8P

>  <numericResult>
50

$$$$
>  <mutantLabel>
chain 2 S4E

>  <numericResult>
38

$$$$
>  <mutantLabel>
chain 2 S8M

>  <numericResult>
21

$$$$

List reported percent of parent for each of these variants:
1. chain 2 L7G
2. chain 2 P3D
3. chain 2 K6Y
4. chain 2 P3F
5. chain 2 Y1F
6. chain 2 Y1Q
7. chain 2 K6M
8. chain 2 E5H

Return:
[54, 104, 105, 472, 139, 10, 7, 303]

From: paper PMC7679444
